For each record, write down the corresponding AC40.
- Test system: mESC Bmi1-luciferase reporter, firefly/renilla ratio, 24 h
- procedure text: compounds raising Bmi1 reporter signal – mouse embryonic stem cells, luciferase, cherry-pick, esBAF inhibitor project, dose response (AID 651717);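 further: luciferase knocked into Bmi1 locus with EF-1a renilla as cell number control; rising ratio signals esBAF inhibition which derepresses Bmi1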

Qu. What AC40 appears in the records for this compound with mESC Bmi1-luciferase reporter, firefly/renilla ratio, 24 h? CC(C)c1ccc(-c2nn(-c3ccccc3)cc2C2C(C#N)=C(N)OC3=C2C(=O)CC(C)(C)C3)cc1 (centres undefined)
Ans. 29.1 µM

Qu. # iterate: CC(=O)N(C)c1nc(-c2ccc(Cl)cc2)cs1
Ans. 5.63 µM

Qu. Record: O=C(CCNC(=O)c1ccccc1)Nc1nc2ccccc2s1
Ans. 3.91 µM

Qu. Follow-up item: COc1ccc(CNC(=O)c2ccc3ccccc3n2)cc1
Ans. 29.4 µM

Qu. Cool, now O=C(NCCc1ccc(F)cc1)c1ccc2c(=O)n3c(nc2c1)CCC3
Ans. 5.89 µM

Qu. CC(C)NC(=O)CCc1nnc(Cc2cccc(C(F)(F)F)c2)o1 ?
Ans. 15.3 µM

Qu. Now consider CN(c1cccc(NC(=O)c2ccc(C(C)(C)C)cc2)c1)S(C)(=O)=O and answer again.
Ans. 2.97 µM

Qu. Record: COc1ccc(CNC(=O)COc2ccccc2C(=O)c2cnn(-c3ccccc3)c2)cc1OC
Ans. 0.642 µM

Qu. Quick one: Cc1ccc(NC(=O)C2CC3CCC2C3)c(Br)c1 (centres undefined)
Ans. 1.22 µM

Qu. # repeat for CS(=O)(=O)c1ccccc1C(=O)Nc1ccc(-c2nc3ccccc3o2)cc1
Ans. 4.29 µM

Qu. Entry to check: Cc1ccc(NC(=O)O/N=C/c2ccc(N(C)C)cc2)cc1
Ans. 16.6 µM

Qu. Now the same for COC(=O)c1sccc1NC(=O)c1ccc(OC)cc1
Ans. 6.81 µM

Qu. Consider next the compound COc1ccc(-c2csc(C(O)c3ccccc3)n2)cn1 (centres undefined) in the same way.
Ans. 9.65 µM

Qu. // repeat for COc1ccc2nc(C(c3ccc(C)cc3)n3c(-c4ccccc4Br)nc4ccccc43)[nH]c2c1 (centres undefined) and report
Ans. 0.494 µM

Qu. Same lookup for Cc1cc2nc(N3CCN(C(=O)c4cccs4)CC3)sc2cc1C , please.
Ans. 1.98 µM

Qu. Input Cc1ccc(NCSc2ccc(Cl)cc2)cc1
Ans. 1.66 µM

Qu. Same read-out for Cc1sc2nc(-c3ccc(Br)cc3)oc(=O)c2c1C ?
Ans. 1.61 µM

Qu. Same lookup for C/C(=N\OC(=O)NC(C)C)c1sc(-c2ccccc2)nc1C , please.
Ans. 7.63 µM

Qu. Lookup Cc1ccc2nc(-c3cccc(S(=O)(=O)N4CCCC4)c3)cn2c1
Ans. 23.2 µM

Qu. Can you handle COc1cccc(NC(=O)N2CCN(c3cccc(C)c3C)CC2)c1 next?
Ans. 4.88 µM

Qu. Quick one: CCCCNc1ccc2c(c1)C1CC2CCN1C(=O)OCc1ccccc1 (centres undefined)
Ans. 4.73 µM

Qu. And Oc1ccccc1C=NN1CCCCCC1 ?
Ans. 1.93 µM

Qu. Do the same for Clc1ccc(-n2nnc(-c3ncc[nH]3)n2)cc1Cl please
Ans. 11.6 µM

Qu. Then this compound: COc1ccc(-c2nnn(Cc3ccccc3)n2)cc1
Ans. 0.621 µM
